Target: Dipeptidase 1 (Sus scrofa)
Experiment: Relative half life of hydrolysis to meropenem by partially purified porcine renal DHP-I was determined
Field: label. Allowed values: Met (Relativity < 2) or Not met (Relativity >= 2).

# example entries with known answers
compound=COC(=O)c1cc(/C=C/[C@@H]2C[C@H](SC3=C(C(=O)O)N4C(=O)[C@H]([C@@H](C)O)[C@H]4[C@H]3C)CN2)on1 label_value="Not met"
compound=C[C@@H](O)[C@H]1C(=O)N2C(C(=O)O)=C(S[C@@H]3CN[C@H](/C=C/c4ccon4)C3)[C@H](C)[C@H]12 label_value="Not met"
compound=C[C@@H](O)[C@H]1C(=O)N2C(C(=O)O)=C(S[C@@H]3CN[C@H](/C=C/c4cc(Cl)no4)C3)[C@H](C)[C@H]12 label_value=Met
compound="C[C@@H](O)[C@H]1C(=O)N2C(C(=O)O)=C(SCCNC=N)C[C@H]12 [IMIPENEM ANHYDROUS]" label_value=Met
compound=COc1cc(/C=C/[C@@H]2C[C@H](SC3=C(C(=O)O)N4C(=O)[C@H]([C@@H](C)O)[C@H]4[C@H]3C)CN2)on1 label_value="Not met"

Lab note: next compound to report on.
Find out if reported Relativity for C[C@@H](O)[C@H]1C(=O)N2C(C(=O)O)=C(S[C@@H]3CN[C@H](/C=C\c4cc(CO)no4)C3)[C@H](C)[C@H]12 is less than 2
Met
